# targetUnderTest: Recombinant human ADAM10 (Homo sapiens)
# Sequence (O14672 214-748): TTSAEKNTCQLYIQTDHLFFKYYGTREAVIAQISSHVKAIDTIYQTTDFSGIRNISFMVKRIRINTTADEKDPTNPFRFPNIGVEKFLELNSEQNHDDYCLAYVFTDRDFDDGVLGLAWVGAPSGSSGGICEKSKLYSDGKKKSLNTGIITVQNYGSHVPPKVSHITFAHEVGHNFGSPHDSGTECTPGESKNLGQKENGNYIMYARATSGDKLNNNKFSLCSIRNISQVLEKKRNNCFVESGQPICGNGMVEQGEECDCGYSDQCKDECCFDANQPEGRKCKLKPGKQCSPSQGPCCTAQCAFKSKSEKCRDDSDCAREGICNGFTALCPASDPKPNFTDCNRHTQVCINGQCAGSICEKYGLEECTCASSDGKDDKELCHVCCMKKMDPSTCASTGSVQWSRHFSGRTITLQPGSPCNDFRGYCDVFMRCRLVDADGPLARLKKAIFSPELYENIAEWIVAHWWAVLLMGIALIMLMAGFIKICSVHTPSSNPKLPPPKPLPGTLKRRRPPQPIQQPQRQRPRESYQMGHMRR
# procedureDetails: In vitro enzymatic inhibition assay
# conditionSet: read-out: ADAM10 IC50; average of three determinations, SD <10%
observedProperty: pIC50
Please treat pIC50 as minus the base-10 logarithm of the molar concentration.

Documented pIC50 of NC(=O)NCCC[C@@H](NS(=O)(=O)c1ccc(OCc2cc(Br)cc(Br)c2)cc1)C(=O)NO : 6.82

---

# targetUnderTest: Recombinant human MMP-14 catalytic domain (Homo sapiens, UniProt P50281)
# procedureDetails: MMP inhibition assay
# conditionSet: read-out: MMP14 IC50; average of three determinations, SD <10%
observedProperty: IC50 (µM)
All answers are understood in µM, so give the number only.

Entry NC(=O)NCCC[C@@H](NS(=O)(=O)c1ccc(OCc2cc(Br)cc(Br)c2)cc1)C(=O)NO [JG26] ; IC50 = 19.5

---

# targetUnderTest: MMP-2 (Homo sapiens, UniProt P08253)
# Sequence (P08253 110-660): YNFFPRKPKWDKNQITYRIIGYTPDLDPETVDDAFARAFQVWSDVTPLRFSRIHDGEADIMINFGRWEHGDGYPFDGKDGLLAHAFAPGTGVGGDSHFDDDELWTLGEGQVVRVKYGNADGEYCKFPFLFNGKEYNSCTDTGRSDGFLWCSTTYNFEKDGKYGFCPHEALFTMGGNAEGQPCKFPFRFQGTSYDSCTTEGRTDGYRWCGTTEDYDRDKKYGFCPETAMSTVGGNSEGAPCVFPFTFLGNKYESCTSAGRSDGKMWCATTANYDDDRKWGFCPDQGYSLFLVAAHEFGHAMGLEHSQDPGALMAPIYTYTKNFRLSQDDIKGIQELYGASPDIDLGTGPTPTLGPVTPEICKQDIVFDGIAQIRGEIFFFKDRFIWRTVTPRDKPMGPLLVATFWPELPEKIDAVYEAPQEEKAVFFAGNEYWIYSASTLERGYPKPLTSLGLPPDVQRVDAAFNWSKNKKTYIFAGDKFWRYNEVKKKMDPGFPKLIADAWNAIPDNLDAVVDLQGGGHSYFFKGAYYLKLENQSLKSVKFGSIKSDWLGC
observedProperty: pIC50
// pIC50 here means minus log10 of the molar concentration (mol/L)

Observed pIC50 on MMP-2 (Homo sapiens, UniProt P08253), entry NC(=O)NCCC[C@@H](NS(=O)(=O)c1ccc(OCc2cc(Br)cc(Br)c2)cc1)C(=O)NO [JG26] , equals 6.62

---

# targetUnderTest: MMP-9 (Homo sapiens)
# Sequence (P14780 107-707 limits assumed): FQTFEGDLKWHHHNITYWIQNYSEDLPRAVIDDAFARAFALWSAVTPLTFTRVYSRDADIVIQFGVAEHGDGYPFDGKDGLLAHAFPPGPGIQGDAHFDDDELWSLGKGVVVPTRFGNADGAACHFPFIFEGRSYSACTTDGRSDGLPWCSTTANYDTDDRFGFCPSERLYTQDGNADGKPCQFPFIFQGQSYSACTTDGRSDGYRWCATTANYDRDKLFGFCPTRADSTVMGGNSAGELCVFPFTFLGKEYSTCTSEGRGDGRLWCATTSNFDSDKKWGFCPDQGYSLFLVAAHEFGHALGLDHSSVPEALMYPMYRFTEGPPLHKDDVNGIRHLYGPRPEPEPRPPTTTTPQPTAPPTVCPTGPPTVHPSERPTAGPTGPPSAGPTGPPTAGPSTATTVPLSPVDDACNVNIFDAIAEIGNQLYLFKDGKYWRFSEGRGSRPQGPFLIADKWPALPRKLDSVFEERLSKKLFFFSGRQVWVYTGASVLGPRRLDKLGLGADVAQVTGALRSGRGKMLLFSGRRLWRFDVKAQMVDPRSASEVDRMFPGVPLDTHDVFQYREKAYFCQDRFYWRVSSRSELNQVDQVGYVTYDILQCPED
observedProperty: IC50

Given the compound NC(=O)NCCC[C@@H](NS(=O)(=O)c1ccc(OCc2cc(Br)cc(Br)c2)cc1)C(=O)NO [JG26] and test system MMP-9 (Homo sapiens), the measured IC50 is 1630 nM

Reference source for all entries: paper PMC4910733
